# credit: paper PMC11289669

- SYSTEM NAME: UniProt:Q8TDU6
- METHOD: GPBAR1 transactivation (CRE-luciferase reporter) assay in HEK-293T cells
- ASSAY CONTEXT: transactivation assay, HEK-293T cells
MEASUREMENT TYPE: pEC50
Bear in mind: pEC50 is minus log10 of a mol/L concentration; give just that figure.

pEC50 for CC[C@@H]1C2C[C@H](OC(=O)C(C)(C)Oc3ccc(Cl)cc3)CC[C@]2(C)C2CC[C@@]3(C)C(CC[C@@H]3[C@H](C)CCOC(=O)C(C)(C)Oc3ccc(Cl)cc3)C2[C@@H]1O (stereo partly shown) ?
5.74

Name the recorded pEC50 for CC[C@H]1[C@@H](O)[C@@H]2[C@H](CC[C@]3(C)[C@@H]([C@H](C)CCO)CC[C@@H]23)[C@@]2(C)CC[C@@H](O)C[C@@H]12 .
6.40

Recorded pEC50 for CCC1C(O)C2C3CCC(C(C)CC(=O)O)C3(C)CCC2C2(C)CCC(O)CC12 (stereo not shown) [BAR505, reference compound] , please?
5.49

pEC50 lookup needed for CC[C@@H]1C2C[C@H](O)CC[C@]2(C)C2CC[C@@]3(C)C(CC[C@@H]3[C@H](C)CCOC(=O)C(C)(C)Oc3ccc(Cl)cc3)C2[C@@H]1O (stereo partly shown) , thanks.
6.43

---

- SYSTEM NAME: GPBAR1 (Homo sapiens)
- Construct: expressed in transfected cells; host or cells: HEK-293T
- Sequence (Q8TDU6 whole entry): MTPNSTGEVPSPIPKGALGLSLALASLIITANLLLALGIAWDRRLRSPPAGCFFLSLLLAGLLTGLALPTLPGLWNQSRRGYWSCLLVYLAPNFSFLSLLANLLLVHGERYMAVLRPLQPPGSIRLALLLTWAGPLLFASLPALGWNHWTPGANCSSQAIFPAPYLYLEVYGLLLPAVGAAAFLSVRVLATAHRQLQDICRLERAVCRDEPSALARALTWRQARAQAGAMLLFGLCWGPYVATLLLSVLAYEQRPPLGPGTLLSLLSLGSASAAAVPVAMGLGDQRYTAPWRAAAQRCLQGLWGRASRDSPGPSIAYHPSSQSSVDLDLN
- METHOD: GPBAR1 transactivation (CRE-luciferase reporter) assay in HEK-293T cells
- Type: cell-based
- ASSAY CONTEXT: 18 h; transactivation on HEK-293T cells; TLCA 10 μM = 100%; read-out: GPBAR1 efficacy (% vs. TLCA)
Emax reference
// note: answer is a bare numeric in %

Consider the reported Emax for these compounds:
CC[C@@H]1C2C[C@H](OC(=O)C(C)(C)Oc3ccc(C(=O)c4ccc(Cl)cc4)cc3)CC[C@]2(C)C2CC[C@@]3(C)C(CC[C@@H]3[C@H](C)CCO)C2[C@@H]1O (some centres unmarked) [Compound 5] | 40
CC[C@H]1[C@@H](O)[C@@H]2[C@H](CC[C@]3(C)[C@@H]([C@H](C)CCO)CC[C@@H]23)[C@@]2(C)CC[C@@H](O)C[C@@H]12 [BAR502] | 79.5
CC[C@@H]1C2C[C@H](OC(=O)C(C)(C)Oc3ccc(C(=O)c4ccc(Cl)cc4)cc3)CC[C@]2(C)C2CC[C@@]3(C)C(CC[C@@H]3[C@H](C)CCOC(=O)C(C)(C)Oc3ccc(C(=O)c4ccc(Cl)cc4)cc3)C2[C@@H]1O (some centres unmarked) [Compound 6] | 30
CC[C@@H]1C2C[C@H](OC(=O)C(C)(C)CCCOc3cc(C)ccc3C)CC[C@]2(C)C2CC[C@@]3(C)C(CC[C@@H]3[C@H](C)CCOC(=O)C(C)(C)CCCOc3cc(C)ccc3C)C2[C@@H]1O (some centres unmarked) [Compound 9] | 28.5

For the compound CC[C@@H]1C2C[C@H](O)CC[C@]2(C)C2CC[C@@]3(C)C(CC[C@@H]3[C@H](C)CCOC(=O)C(C)(C)Oc3ccc(Cl)cc3)C2[C@@H]1O (some centres unmarked) [Compound 1] , what Emax is on record?
145

---

- METHOD: Microsomal stability in human liver microsomes
- Assay type: in vitro ADME
- ASSAY CONTEXT: pH 7.4, 1 µM, read-out: t1/2 in human microsomes
MEASUREMENT TYPE: half-life at 1 µM (min)
Give your result in min as a bare value.

Quick one: half-life at 1 µM for CC[C@@H]1C2C[C@H](O)CC[C@]2(C)C2CC[C@@]3(C)C(CC[C@@H]3[C@H](C)CCOC(=O)C(C)(C)Oc3ccc(Cl)cc3)C2[C@@H]1O (stereo partly shown) ?
27
